Target: human androgen receptor (AR) (Homo sapiens, UniProt P10275)
Construct: expressed in transfected cells; host or cells: mouse myoblast C2C12 cells, transiently co-transfected
Assay: C2C12 AR/ARE reporter assay
Format: cell-based
Settings: C2C12 AR/ARE reporter assay; average of n trials; read-out: C2C12 EC50
Assign EC50 to each entry below.
Give bare numbers, in nM.

Molecule	EC50 [nM]
COC(=O)N[C@@H]1CCc2c(c3cc(C#N)ccc3n2Cc2ccccn2)C1	76
CC(C)C(=O)NC1CCc2c(c3cc(-c4ccc(F)nc4)ccc3n2Cc2cccc(F)c2)C1 (centres unmarked)	62.3
CCC(=O)NC1CCc2c(c3cc(OC)ccc3n2Cc2ccccc2)C1 (centres unmarked)	19.2
CC(C)C(=O)NC1CCc2c(c3cc(-c4cccnn4)ccc3n2Cc2cccc(F)c2)C1 (centres unmarked)	31.1
COC(=O)NC1CCc2c(c3cc(OC(F)(F)F)ccc3n2Cc2cccc(F)n2)C1 (centres unmarked)	1230

Record EC50 for all entries; do not skip any.
1. CC(C)C(=O)NC1CCc2c(c3cc(C#N)ccc3n2Cc2ccsc2)C1 (centres unmarked)
2. CN(C)C(=O)NC1CCc2c(c3cc(OC(F)(F)F)ccc3n2Cc2cccc(F)c2)C1 (centres unmarked)
3. CC(C)C(=O)NC1CCc2c(c3cc(C(F)F)ccc3n2Cc2cccc(F)c2)C1 (centres unmarked)
4. O=C(NC1CCc2c(c3cc(OC(F)(F)F)ccc3n2Cc2cccc(F)n2)C1)C1CC1 (centres unmarked)
5. CC(C)C(=O)NC1CCc2c(c3cc(C#N)ccc3n2Cc2ccc(Cl)s2)C1 (centres unmarked)
6. CC(C)C(=O)NC1CCc2c(c3cc(-c4ccc(N)nc4)ccc3n2Cc2cccc(F)c2)C1 (centres unmarked)
7. CNC(=O)NC1CCc2c(c3cc(C#N)ccc3n2Cc2cccc(F)c2)C1 (centres unmarked)
8. CC(C)C(=O)NC1CCc2c(c3cc(C#N)ccc3n2Cc2nccs2)C1 (centres unmarked)

stdout:
1: 3; 2: 6.5; 3: 11; 4: 37.3; 5: 23.8; 6: 23.7; 7: 24.1; 8: 17.6

Fill in EC50 for each of the 4 molecules listed.
1. CC(C)C(=O)NC1CCc2c(c3cc(Cl)ccc3n2Cc2ccc(O)cc2)C1 (centres unmarked)
2. O=C(NC1CCc2c(c3cc(Br)ccc3n2Cc2cccc(F)c2)C1)C(F)(F)F (centres unmarked)
3. CC(C)C(=O)N[C@@H]1CCc2c(c3cc(C(=O)O)ccc3n2Cc2cccc(F)c2)C1
4. COC(=O)NC1CCc2c(c3cc(OC(F)(F)F)ccc3n2Cc2cccc(F)c2)C1 (centres unmarked)

stdout:
293
88
794
280

###

Target: human AR (androgen receptor) (Homo sapiens, UniProt P10275)
Construct: expressed in transfected cells; host or cells: 293 cells (293-AR lysate)
Assay: Steroid hormone nuclear receptor binding assay, AR binding
Conditions: average of n trials; read-out: AR binding Ki
Lab note - cut at 30 nM for Ki: criterion met if strictly below, criterion not met if not.

Worked set:
Molecule	Test system	Assigned label
CCOC(=O)Nc1ccc2c(c1)c1c(n2Cc2cccc(F)c2)CC[C@@H](NC(=O)C(C)C)C1 [Example 189]	human AR (androgen receptor) (Homo sapiens, UniProt P10275)	criterion met
CC(C)C(=O)NC1CCc2c(c3cc(-c4cccnn4)ccc3n2Cc2cccc(F)c2)C1 (centres unmarked) [Example 138]	human AR (androgen receptor) (Homo sapiens, UniProt P10275)	criterion not met
CC(C)C(=O)NC1CCc2c(c3cc(C#N)ccc3n2Cc2nccs2)C1 (centres unmarked) [Example 149]	human AR (androgen receptor) (Homo sapiens, UniProt P10275)	criterion met
CC(C)C(=O)NC1CCc2c(c3cc(-c4ccncc4)ccc3n2Cc2cccc(F)c2)C1 (centres unmarked) [Example 134]	human AR (androgen receptor) (Homo sapiens, UniProt P10275)	criterion not met

stdin: A record lists CO/N=C/c1ccc2c(c1)c1c(n2Cc2cccc(F)c2)CCC(NC(=O)C(C)C)C1 (centres unmarked) [Example 199] . Is its Ki below 30 nM?
stdout: criterion met

stdin: Answer whether the molecule CN(C)C(=O)NC1CCc2c(c3cc(C#N)ccc3n2Cc2cccc(F)c2)C1 (centres unmarked) [Example 178] has Ki strictly less than 30 nM
stdout: criterion met

stdin: Is it true that Ki reported for COC(=O)N[C@@H]1CCc2c(c3cc(C#N)ccc3n2Cc2ccccn2)C1 [Example 185] is less than 30 nM?
stdout: criterion met

stdin: Please determine if COc1ccc2c(c1)c1c(n2Cc2cccc(F)c2)CCC(NC(=O)C(C)C)C1 (centres unmarked) [Example 79] is below 30 nM in terms of Ki.
stdout: criterion met

###

Target: human AR (androgen receptor) (Homo sapiens)
Construct: expressed in transfected cells; host or cells: 293 cells (293-AR lysate)
Assay: Steroid hormone nuclear receptor binding assay, AR binding
Attribute measured: Ki (nM)
Answers are plain numbers, in nM.

Compound	Test system	Measured result
COc1ccc2c(c1)c1c(n2Cc2ccccc2)CCC(NC(=O)C(C)C)C1 (stereo not shown)	human AR (androgen receptor) (Homo sapiens)	6.2
COc1ccc2c(c1)c1c(n2Cc2ccccn2)CCC(NC(=O)C(C)C)C1 (stereo not shown)	human AR (androgen receptor) (Homo sapiens)	362

For every item below, please supply its Ki.
1. N#Cc1ccc2c(c1)c1c(n2Cc2cccc(F)n2)CC[C@@H](NC(=O)C2CC2)C1
2. CC(C)C(=O)NC1CCc2c(c3cc(Cl)ccc3n2Cc2ccc(C#N)cc2)C1 (stereo not shown)

stdout:
1. 4.3
2. 12.8

###

Target: human androgen receptor (AR) (Homo sapiens, UniProt P10275)
Construct: expressed in transfected cells; host or cells: mouse myoblast C2C12 cells, transiently co-transfected
Assay: C2C12 AR/ARE reporter assay
Type: cell-based
Conditions: C2C12, read-out: C2C12 % Efficacy
So I've got a bunch of compounds here, and I need their Emax values.
Give bare numbers, in %.

Some solved entries appear below for comparison.
Compound	Test system	Attribute measured	Measured result
CC(C)C(=O)NC1CCc2c(c3cc(C#N)c(Cl)cc3n2Cc2cccc(F)c2)C1 (stereo not shown)	human androgen receptor (AR) (Homo sapiens, UniProt P10275)	Emax	124
CC(=O)c1ccc2c(c1)c1c(n2Cc2cccc(F)c2)CC[C@@H](NC(=O)C(C)C)C1	human androgen receptor (AR) (Homo sapiens, UniProt P10275)	Emax	91.2
CO/N=C/c1ccc2c(c1)c1c(n2Cc2cccc(F)c2)CCC(NC(=O)C2CC2)C1 (stereo not shown)	human androgen receptor (AR) (Homo sapiens, UniProt P10275)	Emax	90.5
Cc1nc(Cn2c3c(c4cc(C#N)ccc42)C[C@@H](NC(=O)C(C)C)CC3)cs1	human androgen receptor (AR) (Homo sapiens, UniProt P10275)	Emax	61.1
CC(C)C(=O)NC1CCc2c(c3cc([N+](=O)[O-])ccc3n2Cc2cccc(F)c2)C1 (stereo not shown)	human androgen receptor (AR) (Homo sapiens, UniProt P10275)	Emax	83.2

Please state Emax for every compound in the list that follows.
1. CC(C)C(=O)NC1CCc2c(c3cc(Cl)ccc3n2Cc2cccc(Br)c2)C1 (stereo not shown)
2. COc1ccccc1Cn1c2c(c3cc(C#N)ccc31)CC(NC(=O)C(C)C)CC2 (stereo not shown)
3. CN(C)S(=O)(=O)NC1CCc2c(c3cc(C#N)ccc3n2Cc2cccc(F)c2)C1 (stereo not shown)
4. CC(C)C(=O)N[C@@H]1CCc2c(c3cc(-c4nnc(N)s4)ccc3n2Cc2cccc(F)c2)C1
5. CC(C)C(=O)NC1CCc2c(c3cc(Br)ccc3n2Cc2cccc(C#N)c2)C1 (stereo not shown)
6. COC(=O)c1ccc2c(c1)c1c(n2Cc2cccc(F)c2)CC[C@@H](NC(=O)C(C)C)C1
7. CC(C)C(=O)NC1CCc2c(c3cc(C#N)ccc3n2Cc2ccccc2OC(F)F)C1 (stereo not shown)
8. CC(C)Oc1ccc2c(c1)c1c(n2Cc2cccc(F)c2)CCC(NC(=O)C(C)C)C1 (stereo not shown)

stdout:
1. 81.9
2. 97.5
3. 95.4
4. 87
5. 79.5
6. 77.8
7. 102
8. 101

###

Target: human AR (androgen receptor) (Homo sapiens)
Construct: expressed in transfected cells; host or cells: 293 cells (293-AR lysate)
Sequence (P10275 1-920): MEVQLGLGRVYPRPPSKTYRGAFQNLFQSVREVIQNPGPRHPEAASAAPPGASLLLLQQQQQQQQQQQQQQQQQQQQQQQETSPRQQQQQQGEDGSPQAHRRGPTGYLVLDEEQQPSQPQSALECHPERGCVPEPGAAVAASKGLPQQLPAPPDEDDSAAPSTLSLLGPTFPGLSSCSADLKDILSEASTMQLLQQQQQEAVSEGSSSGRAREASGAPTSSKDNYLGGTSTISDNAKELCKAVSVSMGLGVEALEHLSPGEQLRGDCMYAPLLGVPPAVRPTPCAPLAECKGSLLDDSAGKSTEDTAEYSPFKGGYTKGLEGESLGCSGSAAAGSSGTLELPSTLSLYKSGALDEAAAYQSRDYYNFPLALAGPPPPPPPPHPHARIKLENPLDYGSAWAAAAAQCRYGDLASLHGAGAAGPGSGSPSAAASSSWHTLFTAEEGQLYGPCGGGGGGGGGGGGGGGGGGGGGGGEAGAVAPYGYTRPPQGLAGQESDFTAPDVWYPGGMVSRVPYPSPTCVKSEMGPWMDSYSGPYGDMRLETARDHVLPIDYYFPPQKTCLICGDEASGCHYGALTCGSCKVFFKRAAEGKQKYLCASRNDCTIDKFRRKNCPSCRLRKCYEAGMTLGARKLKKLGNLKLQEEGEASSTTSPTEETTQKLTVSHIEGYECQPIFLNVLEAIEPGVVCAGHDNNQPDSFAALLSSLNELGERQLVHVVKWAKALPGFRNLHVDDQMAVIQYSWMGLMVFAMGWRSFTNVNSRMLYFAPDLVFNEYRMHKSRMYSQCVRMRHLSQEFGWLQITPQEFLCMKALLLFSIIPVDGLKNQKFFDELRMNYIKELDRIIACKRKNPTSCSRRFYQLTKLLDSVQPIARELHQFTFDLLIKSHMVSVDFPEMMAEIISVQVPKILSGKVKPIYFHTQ
Test: Steroid hormone nuclear receptor binding assay, AR binding
Consider the cut-off 0.01 µM. If the recorded Ki is strictly smaller, the label is yes; if not, the label is no.

Compound	Assigned label
COc1ccc(Cn2c3c(c4cc(C#N)ccc42)CC(NC(=O)C(C)C)CC3)cc1 (centres unmarked)	no

stdin: Given the entry COc1ccc(Cn2c3c(c4cc(Br)ccc42)CC(NC(=O)C(C)C)CC3)cc1 (centres unmarked) , would its reported Ki be below 0.01 µM?
stdout: no

stdin: Please indicate whether the reported Ki of CC(C)C(=O)NC1CCc2c(c3cc(C#N)ccc3n2Cc2ncccc2F)C1 (centres unmarked) is strictly below 0.01 µM.
stdout: no

stdin: Below 0.01 µM on Ki? Entry CN(C)C(=O)NC1CCc2c(c3cc(OC(F)(F)F)ccc3n2Cc2cccc(F)n2)C1 (centres unmarked)
stdout: no

stdin: Field: below-cutoff. Rule: recorded Ki strictly less than 0.01 µM. Subject: CC(C)C(=O)NC1CCc2c(c3cc(C#N)ccc3n2Cc2csc(Cl)n2)C1 (centres unmarked)
stdout: yes

stdin: Report whether reported Ki is lower than 0.01 µM (strictly) for CC(C)C(=O)NC1CCc2c(c3cc(Br)ccc3n2Cc2ccccc2F)C1 (centres unmarked)
stdout: yes

stdin: Would you kindly verify if Ki of CC(C)C(=O)NC1CCc2c(c3cc(-c4cncnc4)ccc3n2Cc2cccc(F)c2)C1 (centres unmarked) is strictly less than 0.01 µM?
stdout: no

stdin: Hello, I'm reviewing records and need to know if Ki of CC(C)C(=O)NC1CCc2c(c3cc(-c4nnc(N)s4)ccc3n2Cc2cccc(F)c2)C1 (centres unmarked) is below 0.01 µM. Could you check?
stdout: no

stdin: Ki strictly < 0.01 µM for this compound? CC(C)C(=O)NC1CCc2c(c3cc(F)ccc3n2Cc2ccc(Cl)cc2)C1 (centres unmarked)
stdout: no

stdin: I wonder whether CC(C)C(=O)NC1CCc2c(c3cc(C#N)cc(F)c3n2Cc2cccc(F)c2)C1 (centres unmarked) has Ki below 0.01 µM. Can you tell?
stdout: yes

stdin: Dear reviewer, please state whether Cc1ccc2c(c1)c1c(n2Cc2cccc(C#N)c2)CCC(NC(=O)C(C)C)C1 (centres unmarked) has Ki strictly beneath 0.01 µM.
stdout: no

stdin: Confirm or reject: Ki of Cc1nc(Cn2c3c(c4cc(C#N)ccc42)C[C@@H](NC(=O)C(C)C)CC3)cs1 lies strictly below 0.01 µM
stdout: no

stdin: I wonder whether CC(C)C(=O)NC1CCc2c(c3cc(Cl)ccc3n2Cc2ccccc2F)C1 (centres unmarked) has Ki below 0.01 µM. Can you tell?
stdout: yes

stdin: Please state whether Ki is below 0.01 µM for CCOc1ccc2c(c1)c1c(n2Cc2cccc(F)c2)CCC(NC(=O)C(C)C)C1 (centres unmarked)
stdout: yes

stdin: Item CC(C)C(=O)N[C@@H]1CCc2c(c3cc(-c4cccnc4)ccc3n2Cc2cccc(F)c2)C1 : Ki beneath 0.01 µM, strictly?
stdout: yes

stdin: Hello, is Ki of the following compound strictly smaller than 0.01 µM? CC(C)C(=O)NC1CCc2c(c3cc(OCC4CC4)ccc3n2Cc2cccc(F)c2)C1 (centres unmarked)
stdout: yes
